tested on: large crabgrass (Digitaria sanguinalis, DIGSA); test: Post-emerge test, greenhouse herbicide activity screening; type: in vivo; conditions: Rate 63 g ai/ha; rating scale 0-100 (0 no damage, 100 complete death); 14 days after application
Below is a list of entries, each paired with its recorded Post-emerge Herbicidal Activity, phytotoxicity rating DIGSA value.
Response field accepts a number only; no unit should be typed.

Consider the worked cases shown below.
COc1c(Cl)cc(F)c(-n2c(=O)cc(C(F)(F)F)n(C)c2=O)c1CC(Cl)C(=O)OCC(Br)CBr (single isomer, unassigned) [14-30]	60
COc1c(Cl)cc(F)c(-n2c(=O)cc(C(F)(F)F)n(C)c2=O)c1CC(Cl)C(=O)OCC(F)(F)F (centres unmarked) [14-21]	70

// sample CCCCOC(=O)C(Cl)Cc1c(OC)c(Cl)cc(F)c1-n1c(=O)cc(C(F)(F)F)n(C)c1=O (single isomer, unassigned) [14-8] , its Post-emerge Herbicidal Activity, phytotoxicity rating DIGSA was 40

// sample COc1c(Cl)cc(F)c(-n2c(=O)cc(C(F)(F)F)n(C)c2=O)c1CC(Cl)C(=O)OCC(F)(F)C(F)(F)C(F)(F)F (single isomer, unassigned) [14-23] , its Post-emerge Herbicidal Activity, phytotoxicity rating DIGSA was 50

// sample CCOC(=O)C(Cl)(C#N)Cc1c(OC)c(Cl)cc(F)c1-n1c(=O)cc(C(F)(F)F)n(C)c1=O (centres unmarked) [14-51] , its Post-emerge Herbicidal Activity, phytotoxicity rating DIGSA was 0

====

tested on: johnsongrass (Sorghum halepense, SORHA); assay: Pre-emerge test, greenhouse herbicide activity screening; type: in vivo; settings: 63 g ai/ha; phytotoxicity rating 0-100, 14 days after application
quantityMeasured: Pre-emerge Herbicidal Activity SORHA
Response field accepts a number only; no unit should be typed.

Consider the worked cases shown below.
COc1c(Cl)cc(F)c(-n2c(=O)cc(C(F)(F)F)n(C)c2=O)c1NC(=O)OCc1c(F)c(F)c(F)c(F)c1F	60
COc1c(Cl)cc(F)c(-n2c(=O)cc(C(F)(F)F)n(C)c2=O)c1NC(=O)OCc1c(Cl)cccc1Cl	10
Cn1c(C(F)(F)F)cc(=O)n(-c2ccc(Cl)cc2NC(=O)C2CC2)c1=O	40
COc1c(Cl)cc(F)c(-n2c(=O)cc(C(F)(F)F)n(C)c2=O)c1NC(=O)OCc1ccc(C)c(C)c1	0
COc1c(Cl)cc(F)c(-n2c(=O)cc(C(F)(F)F)n(C)c2=O)c1NC(=O)Nc1ccccc1	0

// sample `COc1c(Cl)cc(F)c(-n2c(=O)cc(C(F)(F)F)n(C)c2=O)c1NC(=O)C1CC1` , its Pre-emerge Herbicidal Activity SORHA was 0

// sample `COc1c(Cl)cc(F)c(-n2c(=O)cc(C(F)(F)F)n(C)c2=O)c1NC(=O)NCc1ccccc1` , its Pre-emerge Herbicidal Activity SORHA was 30

// sample `Cn1c(C(F)(F)F)cc(=O)n(-c2ccc(C(N)=S)cc2NC(=O)c2ccc3ccccc3c2)c1=O` , its Pre-emerge Herbicidal Activity SORHA was 40

// sample `Cn1c(C(F)(F)F)cc(=O)n(-c2c(F)cc(Cl)c(Oc3ncccc3[N+](=O)[O-])c2NC(=O)c2ccc3ccccc3c2)c1=O` , its Pre-emerge Herbicidal Activity SORHA was 100

// sample `Cc1ccc(OC(=O)Nc2c(C)c(Cl)cc(F)c2-n2c(=O)cc(C(F)(F)F)n(C)c2=O)cc1C` , its Pre-emerge Herbicidal Activity SORHA was 30

// sample `COc1c(Cl)cc(F)c(-n2c(=O)cc(C(F)(F)F)n(C)c2=O)c1NC(=O)OCc1ccc(F)c(F)c1` , its Pre-emerge Herbicidal Activity SORHA was 30

// sample COc1c(Cl)cc(F)c(-n2c(=O)cc(C(F)(F)F)n(C)c2=O)c1NC(=O)OC(c1ccccc1)C1CC1 (centres unmarked) , its Pre-emerge Herbicidal Activity SORHA was 20

// sample `CCc1ccc(COC(=O)Nc2c(OC)c(Cl)cc(F)c2-n2c(=O)cc(C(F)(F)F)n(C)c2=O)cc1` , its Pre-emerge Herbicidal Activity SORHA was 10

// sample `COC(=O)N(C(=O)OC)c1c(OC)c(Cl)cc(F)c1-n1c(=O)cc(C(F)(F)F)n(C)c1=O` , its Pre-emerge Herbicidal Activity SORHA was 0
